Source: patent US9334289B2

Tested on: P. aeruginosa SR01332
Test: MIC, CLSI broth microdilution, Test Example 2
Type: cell-based
Condition Context: Pseudomonas aeruginosa, SR01332; VIM-11 MBL producing strain (carbapenem resistance strain); cation-adjusted Iso-Sensitest broth containing human Apo-transferrin; 5×10^5 cfu/mL; read-out: Minimum Inhibitory Concentration (MIC) P. aeruginosa SR01332
Attribute Measured: MIC (µg/mL)
Expressed in µg/mL, but write only the number.

Sample answers from the record:
The measured MIC associated with CC(C)(O/N=C(\C(=O)N[C@@H]1C(=O)N2C(c3nnn[n-]3)=C(C[n+]3ccc4cc(O)c(O)cc4c3)CS[C@H]12)c1nc(N)sc1Cl)C(=O)[O-].[Na+] reads 0.25

The measured MIC associated with CC(C)(O/N=C(\C(=O)N[C@@H]1C(=O)N2C(c3nnn[n-]3)=C(C[n+]3ccc4cc(O)c(O)cc4c3)CS[C@H]12)c1nsc(N)n1)C(=O)[O-].[Na+] reads 0.5

The measured MIC associated with CC(C)(O/N=C(\C(=O)N[C@@H]1C(=O)N2C(c3nnn[nH]3)=C(C[N@+]34CCC[C@H]3CN(C(=O)c3ccc(O)c(O)c3Cl)CC4)CS[C@H]12)c1nc(N)sc1Cl)C(=O)[O-] reads 4

The measured MIC associated with Nc1nc(/C(=N/O[C@@H](CC(=O)[O-])C(=O)[O-])C(=O)N[C@@H]2C(=O)N3C(c4nnn[n-]4)=C(C[n+]4ccc5cc(O)c(O)cc5c4)CS[C@H]23)cs1.[Na+].[Na+] reads 0.25

The measured MIC associated with CC(C)(O/N=C(\C(=O)N[C@@H]1C(=O)N2C(c3nnn[n-]3)=C(C[n+]3ccc(NC(=O)c4ccc(O)c(O)c4Cl)cc3)CS[C@H]12)c1nc(N)sc1Cl)C(=O)[O-].[Na+] reads 0.5

Next:
The measured MIC associated with CC(C)(O/N=C(\C(=O)N[C@@H]1C(=O)N2C(c3nnn[nH]3)=C(C[N+]34CCCC3CN(C(=O)c3cc(O)c(O)c(Cl)c3)CC4)CS[C@H]12)c1nsc(N)n1)C(=O)[O-] (stereo partly shown) reads 4

The measured MIC associated with C[N+](C)(CCNC(=O)c1ccc(O)c(O)c1Cl)CC1=C(c2nnn[nH]2)N2C(=O)[C@@H](NC(=O)/C(=N\O[C@@H](CC(=O)O)C(=O)[O-])c3nc(N)sc3Cl)[C@H]2SC1 reads 2
